system: healthy animals; assay: Effect of the compounds on healthy animals (same in vivo assay, cerebral oxidative parameters); parameters: species or system mice; details: healthy mice, 50 mg/kg IP for three consecutive days; mean over all parameters; D = doxorubicin alone
Measure name: Average % variation with respect to the vehicle (%)
Numeric answer only, unit % assumed.

Which Average % variation with respect to the vehicle value belongs to Cc1cc(O)c(C2COCCN2O)c(=O)o1 (stereo not shown) [(9)] ?
-9.9

Which Average % variation with respect to the vehicle value belongs to CC1(C)CC(=O)C(C2CC(C)(C)CCN2O)C(=O)C1 (stereo not shown) [(1)] ?
-7.0

Which Average % variation with respect to the vehicle value belongs to CC1=NN(c2ccccc2)C(=O)C1 [edaravone, reference compound] ?
-2.7

Which Average % variation with respect to the vehicle value belongs to COc1cccc2c1C(=O)c1c(O)c3c(c(O)c1C2=O)C[C@@](O)(C(=O)CO)C[C@@H]3O[C@H]1C[C@H](N)[C@H](O)[C@H](C)O1 [doxorubicin, reference compound] ?
-11.4

----------
test system: healthy animals; experiment: Effect of the compounds on healthy animals (same in vivo assay, cerebral oxidative parameters); parameters: species or system mice; details: healthy mice, 50 mg/kg IP x3 days; percentage change relative to the vehicle
Measure name: Prot. Ox/pr (%)
Numeric answer only, unit % assumed.

Which Prot. Ox/pr value belongs to CC1=NN(c2ccccc2)C(=O)C1C1COCCN1O (stereo not shown) ?
1.5

Which Prot. Ox/pr value belongs to CC1(C)CC(=O)C(C2CCCCN2O)C(=O)C1 (stereo not shown) ?
-8.6

Which Prot. Ox/pr value belongs to CC1=NN(c2ccccc2)C(=O)C1 [edaravone, reference compound] ?
-2.3

Which Prot. Ox/pr value belongs to O=C1CCC(=O)C1C1COCCN1O (stereo not shown) ?
-7.2
